Each item that follows carries a reported IC50.
# system.tested: GTPase KRas (G12D) (Homo sapiens, UniProt P01116, G12D)
# Sequence (P01116 whole entry G12D): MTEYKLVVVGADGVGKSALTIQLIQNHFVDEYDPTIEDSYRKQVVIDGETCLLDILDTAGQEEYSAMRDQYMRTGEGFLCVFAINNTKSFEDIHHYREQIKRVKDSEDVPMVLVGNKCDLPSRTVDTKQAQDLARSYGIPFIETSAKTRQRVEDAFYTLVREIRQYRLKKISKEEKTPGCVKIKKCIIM
# assay.protocol: KRAS-GCP Protein Assay
Report only the number, with the unit nM understood.

[Q] // map Oc1cc2c3c(c(F)ccc3c1)CCCCCNc1cc3c(N4CC5CCC(C4)N5)nc(OC[C@@]45CCCN4C[C@H](F)C5)nc3c(F)c1-2 to recorded IC50 (system: GTPase KRas (G12D) (Homo sapiens, UniProt P01116, G12D))
[A] 232

[Q] // map O=C1CCCCc2c(F)ccc3cc(O)cc(c23)-c2c(cc3c(N4CC5CCC(C4)N5)nc(OC[C@@]45CCCN4C[C@H](F)C5)nc3c2F)N1 to recorded IC50 (system: GTPase KRas (G12D) (Homo sapiens, UniProt P01116, G12D))
[A] 94.4
